Hey, just so you know, these numbers are from patent US11413264B2.

- assayed_system: vesicular monoamine transporter (VMAT2) (Rattus norvegicus, UniProt Q01827)
- Construct: Rat brain; from tissue; host or cells: rat brain minus cerebellum, membrane fraction
- Sequence (Q01827 whole entry): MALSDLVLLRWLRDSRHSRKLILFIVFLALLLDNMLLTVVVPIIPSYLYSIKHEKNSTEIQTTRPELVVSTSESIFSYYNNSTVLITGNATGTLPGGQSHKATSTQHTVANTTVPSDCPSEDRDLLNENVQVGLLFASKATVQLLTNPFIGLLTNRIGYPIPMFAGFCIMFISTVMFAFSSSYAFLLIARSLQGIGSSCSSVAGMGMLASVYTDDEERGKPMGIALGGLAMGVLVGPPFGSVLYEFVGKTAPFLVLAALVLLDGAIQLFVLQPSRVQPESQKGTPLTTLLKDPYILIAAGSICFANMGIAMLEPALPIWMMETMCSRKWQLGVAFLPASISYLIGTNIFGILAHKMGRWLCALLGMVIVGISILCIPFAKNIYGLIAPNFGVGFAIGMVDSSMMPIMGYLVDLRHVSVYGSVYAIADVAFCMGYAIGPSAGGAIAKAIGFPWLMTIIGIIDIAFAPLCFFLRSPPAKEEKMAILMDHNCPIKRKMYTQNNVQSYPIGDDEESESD
- measurement_protocol: Competitive radioligand binding assay, VMAT2 transporter (antagonist radioligand)
- assay_context: VMAT2 transporter; compound at 10 μM; single value; read-out: % inhibition of control specific binding, 1st
Counter-ions that a name gives are not always drawn.
Sorting guide: entries reporting inhibition at 10 µM beneath 6% go in the true pile, the rest go in the false pile.

{"compound": "NC(=O)CC[C@H](N)Cc1ccccc1 [Compound 4, hydrochloride]", "category": "true"}
{"compound": "NC(=O)OC[C@H](N)Cc1ccccc1 [APC, (R)-2-amino-3-phenylpropyl carbamate, reference compound]", "category": "false"}
{"compound": "NC(=O)SC[C@H](N)Cc1ccccc1 [Compound 10, hydrochloride]", "category": "true"}
{"compound": "N[C@@H](COS(N)(=O)=O)Cc1ccccc1 [Compound 9, hydrochloride]", "category": "false"}
{"compound": "NC(=O)NC[C@H](N)Cc1ccccc1 [Compound 3, hydrochloride]", "category": "true"}
